# Tested on: HOP-92 NSCLC
# assay-notes: NCI-60 one-dose screen, 48 h
# study-conditions: 10 µM unless noted
About 83,000 compounds went through this panel and 20% of them were active in at least one assay; those are over-represented in the sample as a whole. Calls of active or inactive are those of the source. The calls were made as follows: active = growth percent below 10; inactive = the rest.
Possible outcomes: 1.0 for active, 0.0 for inactive

[[record]]
molecule = "CCOC(OCC)C(=O)c1ccccc1"
cat = 0.0

[[record]]
molecule = "COC1OC(C(COC(C)=O)OC(C)=O)C(OC(C)=O)C(OC(C)=O)C1OC(C)=O (centres undefined)"
cat = 0.0

[[record]]
molecule = "COC1OC(COC(C)=O)C(OC(C)=O)C(OC(C)=O)C1OC(C)=O (centres undefined)"
cat = 0.0

[[record]]
molecule = "CC(=O)c1cccc(NS(=O)(=O)c2ccc(C)cc2)c1"
cat = 0.0

[[record]]
molecule = "CC(=O)NC(O)C(Cl)Cl (centres undefined)"
cat = 0.0

[[record]]
molecule = "Cc1nc(C)c(C(=O)O)cc1C(=O)O"
cat = 0.0

[[record]]
molecule = "CC(C)(C)[Si](C)(C)OCC1OC(n2cnc3c(N)ncnc32)CC1OS(C)(=O)=O (centres undefined)"
cat = 0.0

[[record]]
molecule = "Cc1c(Cl)cccc1N=C=S"
cat = 0.0

[[record]]
molecule = "Cn1c(=O)c2[nH]c(CCCCC(=O)O)nc2n(C)c1=O"
cat = 0.0

[[record]]
molecule = "COC1OC(C(O)C(O)CO)C(O)C(O)C1O (centres undefined)"
cat = 0.0

[[record]]
molecule = "NC(CCl)=NCC12CC3CC(CC(C3)C1)C2"
cat = 1.0

[[record]]
molecule = "COC1CC(OC(=O)c2ccc([N+](=O)[O-])cc2)C(COC(=O)c2ccc([N+](=O)[O-])cc2)O1 (centres undefined)"
cat = 0.0

[[record]]
molecule = "CC(C)N1CC(=O)N2CSCC2C1=O (centres undefined)"
cat = 0.0

[[record]]
molecule = "COC(=O)Cc1cc(COC(C)=O)ccc1C"
cat = 0.0

[[record]]
molecule = "CCCCN(C=S)CCCC"
cat = 0.0

[[record]]
molecule = "NC(=S)N/N=C/c1ccc(Cl)cc1"
cat = 0.0

[[record]]
molecule = "CCCNS(=O)(=O)c1ccc(Cl)cc1"
cat = 0.0

[[record]]
molecule = "C/C(O)=C(/C=N\\C(=S)Nc1ccc(S(=O)(=O)Nc2nccs2)cc1)C(=O)Nc1ccccc1C"
cat = 0.0

[[record]]
molecule = "CC(CCC#N)(CCC#N)C(=O)c1ccccc1"
cat = 0.0

[[record]]
molecule = "CCCOCc1cn[nH]n1"
cat = 0.0

[[record]]
molecule = "Cc1cc(Nc2ccc3c(c2)OCO3)c2cc3c(cc2n1)OCO3"
cat = 0.0

[[record]]
molecule = "Cc1ccc(NCN2C(=O)c3ccccc3C2=O)c(C)n1"
cat = 0.0

[[record]]
molecule = "CCCC(OC(C)=O)c1ccc2c(c1)OCO2 (centres undefined)"
cat = 0.0

[[record]]
molecule = "NNc1ncccn1"
cat = 0.0

[[record]]
molecule = "C=C1CC2(OC1=O)C(=O)N(C)c1ccc(I)cc12 (centres undefined)"
cat = 1.0

[[record]]
molecule = "Cc1cc(CC(=O)NCCO)n(CCO)c(=O)c1"
cat = 0.0

[[record]]
molecule = "S=C(Sc1ccc(Cl)cc1)Sc1ccc(Cl)cc1"
cat = 1.0

[[record]]
molecule = "CCOC(=O)C(COS(C)(=O)=O)(COS(C)(=O)=O)C(=O)OCC"
cat = 0.0

[[record]]
molecule = "COc1ccc2c(ccc[n+]2C)c1"
cat = 0.0

[[record]]
molecule = "Cc1ccccc1NC(=O)Oc1ccc(Cl)cc1C(=O)c1ccccc1"
cat = 0.0

[[record]]
molecule = "Cc1ccc(OC(=O)c2ccccc2)cc1"
cat = 0.0

[[record]]
molecule = "O=C(O)Cc1cccc2ccccc12"
cat = 0.0

[[record]]
molecule = "CCOC(=O)c1ccc(NC(C)=O)o1"
cat = 0.0

[[record]]
molecule = "COc1ccc(-c2csc(NC(=O)Nc3nc(-c4ccc(OC)cc4)cs3)n2)cc1"
cat = 0.0

[[record]]
molecule = "O=C(NCc1ccccc1)c1cccc([N+](=O)[O-])c1"
cat = 0.0

[[record]]
molecule = "CCNC(=O)Oc1ccc[nH]c1=O"
cat = 0.0

[[record]]
molecule = "O=Cc1c(O)c2ccccc2[nH]c1=O"
cat = 0.0

[[record]]
molecule = "Oc1cccc(CNC2CCCCC2)c1"
cat = 0.0

[[record]]
molecule = "Cc1cccc(C)c1NC(=S)/N=C\\c1c(O)[nH]c(=O)[nH]c1=O"
cat = 0.0

[[record]]
molecule = "CC1(C)OC(=O)CC1=O"
cat = 0.0

[[record]]
molecule = "CCOc1ccc(C(=O)O)cc1"
cat = 0.0

[[record]]
molecule = "O=C1C=CC(=O)C2=C1CCCC2"
cat = 0.0

[[record]]
molecule = "NNc1ncnc2nc[nH]c12"
cat = 0.0

[[record]]
molecule = "O=C(OCc1ccccc1)n1nnc2ccccc21"
cat = 0.0


* * *

# System: OVCAR-4 ovarian
# assay-notes: NCI-60 one-dose screen, 48 h
# study-conditions: 10 µM unless noted
This is part of a sample that, as a whole, favours compounds with a hit. Of some 83,000 tested, about 20% had one in any assay. Active and inactive are the calls of the source. How the source made its calls: active means growth percent below 10; inactive means the rest.
Possible outcomes: label 1 (active), label 0 (inactive)

[[record]]
molecule = "COC(=O)c1cccc([N+](=O)[O-])c1"
assayed_target = "OVCAR-4 ovarian"
cat = "label 0"

[[record]]
molecule = "C/C(=N\\Nc1ccc([N+](=O)[O-])cc1[N+](=O)[O-])c1ccc(Br)cc1"
assayed_target = "OVCAR-4 ovarian"
cat = "label 0"

[[record]]
molecule = "CC(=O)CSc1ncnc2nc[nH]c12"
assayed_target = "OVCAR-4 ovarian"
cat = "label 0"

[[record]]
molecule = "CCOC(=O)c1ccc(NC(C)=O)o1"
assayed_target = "OVCAR-4 ovarian"
cat = "label 0"

[[record]]
molecule = "CCOC(=O)c1cc(Cl)c(O)c(Cl)c1"
assayed_target = "OVCAR-4 ovarian"
cat = "label 0"

[[record]]
molecule = "O=C(O)CCCCCNC(=O)OCc1ccccc1"
assayed_target = "OVCAR-4 ovarian"
cat = "label 0"

[[record]]
molecule = "CC(C)OCC(CCl)OC(=O)Nc1ccccc1 (stereo not given)"
assayed_target = "OVCAR-4 ovarian"
cat = "label 0"

[[record]]
molecule = "O=Cc1c(O)c2ccccc2[nH]c1=O"
assayed_target = "OVCAR-4 ovarian"
cat = "label 0"

[[record]]
molecule = "CCOc1ccc2c(c1)c(C)cc(C)[n+]2CC"
assayed_target = "OVCAR-4 ovarian"
cat = "label 0"

[[record]]
molecule = "Cc1ccc(S(=O)(=O)Oc2ccc3sc4c(CO)ccc(NCCN(C)C)c4c(=O)c3c2)cc1"
assayed_target = "OVCAR-4 ovarian"
cat = "label 1"

[[record]]
molecule = "CCOC(=O)c1ccc(NC(=O)Nc2nccs2)cc1"
assayed_target = "OVCAR-4 ovarian"
cat = "label 0"

[[record]]
molecule = "BrCc1cccc(C[P+](c2ccccc2)(c2ccccc2)c2ccccc2)c1"
assayed_target = "OVCAR-4 ovarian"
cat = "label 0"

[[record]]
molecule = "CCOC(=O)CNC"
assayed_target = "OVCAR-4 ovarian"
cat = "label 0"

[[record]]
molecule = "O=C(OCC1CCCO1)c1ccc([N+](=O)[O-])cc1 (stereo not given)"
assayed_target = "OVCAR-4 ovarian"
cat = "label 0"

[[record]]
molecule = "C=CCS(C)(=O)=O"
assayed_target = "OVCAR-4 ovarian"
cat = "label 0"

[[record]]
molecule = "CCc1ccccc1C(=O)N(CC)CC"
assayed_target = "OVCAR-4 ovarian"
cat = "label 0"

[[record]]
molecule = "O=C(NC(=S)N1CC=CCC1)c1ccccc1"
assayed_target = "OVCAR-4 ovarian"
cat = "label 0"

[[record]]
molecule = "CC(=O)NC(O)C(Cl)Cl (stereo not given)"
assayed_target = "OVCAR-4 ovarian"
cat = "label 0"

[[record]]
molecule = "N#Cc1ccc(OC(=O)Nc2c(Cl)cc(Cl)cc2Cl)cc1"
assayed_target = "OVCAR-4 ovarian"
cat = "label 0"

[[record]]
molecule = "O=c1n(CC2CO2)c(=O)n(CC2CO2)n1CC1CO1 (stereo not given)"
assayed_target = "OVCAR-4 ovarian"
cat = "label 0"

[[record]]
molecule = "C/C(=N\\O)c1ccccn1"
assayed_target = "OVCAR-4 ovarian"
cat = "label 0"

[[record]]
molecule = "CCCCc1ccc2nc(NC(=O)OC)[nH]c2c1"
assayed_target = "OVCAR-4 ovarian"
cat = "label 0"

[[record]]
molecule = "Cc1[nH]n(-c2ccccc2)c(=O)c1C=NC(=S)C(N)=S"
assayed_target = "OVCAR-4 ovarian"
cat = "label 0"

[[record]]
molecule = "Cc1cc(Cl)cc(Cc2cc(Cl)cc(C)c2O)c1O"
assayed_target = "OVCAR-4 ovarian"
cat = "label 0"

[[record]]
molecule = "O=c1cc(C(F)(F)F)[nH]c(=S)[nH]1"
assayed_target = "OVCAR-4 ovarian"
cat = "label 0"

[[record]]
molecule = "COc1nc2ccccc2s1"
assayed_target = "OVCAR-4 ovarian"
cat = "label 0"

[[record]]
molecule = "OCCc1ccc(Cl)cc1"
assayed_target = "OVCAR-4 ovarian"
cat = "label 0"

[[record]]
molecule = "c1ccc2c(NCCCN3CCN(CCCNc4c5ccccc5nc5ccccc45)CC3)c3ccccc3nc2c1"
assayed_target = "OVCAR-4 ovarian"
cat = "label 1"

[[record]]
molecule = "COc1ccc(Br)c2c1C(=O)CC2"
assayed_target = "OVCAR-4 ovarian"
cat = "label 0"

[[record]]
molecule = "O=C(N/N=C\\c1ccc(Cl)cc1Cl)c1ccncc1"
assayed_target = "OVCAR-4 ovarian"
cat = "label 0"

[[record]]
molecule = "CCCCCCCCCCCCCC/C=C\\C(CC(=O)O)C(=O)O (stereo not given)"
assayed_target = "OVCAR-4 ovarian"
cat = "label 0"

[[record]]
molecule = "COC(=O)Cc1cc(COC(C)=O)ccc1C"
assayed_target = "OVCAR-4 ovarian"
cat = "label 0"

[[record]]
molecule = "N#Cc1ccc(OC(=O)Nc2cc(Cl)cc(Cl)c2)cc1"
assayed_target = "OVCAR-4 ovarian"
cat = "label 0"

[[record]]
molecule = "COc1ccc(Nc2cc(Cl)ccc2C(=O)O)cn1"
assayed_target = "OVCAR-4 ovarian"
cat = "label 0"

[[record]]
molecule = "O=C1NC(=O)/C(=C\\c2ccncc2)N1"
assayed_target = "OVCAR-4 ovarian"
cat = "label 0"

[[record]]
molecule = "COC(=O)c1ccccc1C(=O)c1c(C)cc(C)cc1C"
assayed_target = "OVCAR-4 ovarian"
cat = "label 0"

[[record]]
molecule = "COc1cc(OC)c2cc(C(=O)c3ccc(C#N)cc3)c(=O)oc2c1"
assayed_target = "OVCAR-4 ovarian"
cat = "label 0"

[[record]]
molecule = "COc1ccc(C)cc1NC(=O)SC(C)C"
assayed_target = "OVCAR-4 ovarian"
cat = "label 0"

[[record]]
molecule = "O=C(NCc1ccccc1)c1cccc([N+](=O)[O-])c1"
assayed_target = "OVCAR-4 ovarian"
cat = "label 0"

[[record]]
molecule = "CN(C)c1ccc(O)c2c1CC1CC3C(N(C)C)C(=O)C(C(N)=O)=C(O)C3(O)C(=O)C1=C2O (stereo not given)"
assayed_target = "OVCAR-4 ovarian"
cat = "label 0"

